# systemName: human GLP-1 receptor (human, UniProt P43220 24-463)
# Sequence (P43220 24-463): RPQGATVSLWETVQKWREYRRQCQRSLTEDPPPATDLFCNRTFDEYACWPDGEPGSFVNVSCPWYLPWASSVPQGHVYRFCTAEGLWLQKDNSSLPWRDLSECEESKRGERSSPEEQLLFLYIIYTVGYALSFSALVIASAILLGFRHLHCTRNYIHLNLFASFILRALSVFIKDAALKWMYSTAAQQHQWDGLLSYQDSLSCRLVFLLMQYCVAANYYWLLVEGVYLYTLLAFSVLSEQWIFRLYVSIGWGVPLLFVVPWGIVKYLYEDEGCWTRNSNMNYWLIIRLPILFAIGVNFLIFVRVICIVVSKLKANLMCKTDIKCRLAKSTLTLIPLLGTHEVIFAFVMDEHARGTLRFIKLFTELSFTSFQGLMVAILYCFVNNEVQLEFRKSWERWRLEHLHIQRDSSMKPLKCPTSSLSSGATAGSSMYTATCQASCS
# procedureDetails: cell-based or functional assay
Starred links: 1 amine or outer side, 2 acyl side, 3 side chain; linkers in the order of their positions; H or OH if unused. Non-standard residues stand in square brackets, D forms with d. No end group written: not given here. *: point of attachment. NMe2F‑APPA = N-methyl-2-amino-5-(2-fluorophenyl)pentanoic acid, CN([C@@H](CCCc1ccccc1F)C(=O)[*:2])[*:1]; AMCB = 2-amino-5-(4-chloro-2-methylphenyl)pentanoic acid, Cc1cc(Cl)ccc1CCC[C@H](N[*:1])C(=O)[*:2]; 2CF3,4F‑APPA = 2-amino-5-(4-fluoro-2-(trifluoromethyl)phenyl)pentanoic acid; Bip(2'-Et-4'-OMe) = CCc1cc(OC)ccc1-c1ccc(C[C@H](N)C(=O)O)cc1; Leu(5,5,5,5',5',5'-F6) = N[C@@H](CC(C(F)(F)F)C(F)(F)F)C(=O)O; 2F‑APPA = 2-amino-5-(2-fluorophenyl)pentanoic acid; αMePhe(2-F) = C[C@](N)(Cc1ccccc1F)C(=O)O; NMeBip(OMe) = N-methylated Bip(OMe); hhPhe = N[C@@H](CCCc1ccccc1)C(=O)O; aThr = C[C@H](O)[C@H](N)C(=O)O; NMeAPPA = not defined here; CNB = not defined here; Ac3c = NC1(C(=O)O)CC1; Aib = CC(C)(N)C(=O)O; Moc = COC(=O)*
quantityName: cAMP release, % activity, 10 nM (%)
Answers are plain numbers, in %.

// known answers, use as guide
1. H[Aib][CNB]G[aThr][αMePhe(2-F)][aThr]SD[Bip(2'-Et-4'-OMe)][NMeAPPA] (reading uncertain) [Seq. ID. No. 130: H-Aib-(CNB)-G-T(allo)-(α-Me-2F-Phe)-T(allo)-SD-Bip(OMe)-((NMe)(APPA))]; 81
2. Moc-H[Aib][CNB]GT[αMePhe(2-F)]TSD[Bip(2'-Et-4'-OMe)][hhPhe] (reading uncertain) [Seq. ID. No. 206: CH3OCO-H-Aib-(CNB)-GT-(α-Me-2F-Phe)-TSD-Bip(OMe)-(APPA)]; 80

Kindly give each listed record's cAMP release, % activity, 10 nM.
1. Moc-H[Aib]QG[aThr][αMePhe(2-F)][aThr]SD[NMeBip(OMe)][NMe2F‑APPA] [Seq. ID. No. 140: CH3OCO-H-Aib-QG-T(allo)-(α-Me-2F-Phe)-T(allo)-SD-((NMe)Bip(OMe))-((NMe)(2F-APPA))]
2. H[Aib][Leu(5,5,5,5',5',5'-F6)]GT[αMePhe(2-F)]TSD[Bip(2'-Et-4'-OMe)][AMCB] [Seq. ID. No. 237: H-Aib-(Hfl)-GT-(α-Me-2F-Phe)-TSD-Bip(OMe)-(AMCB)]
3. H[Aib][CNB]G[aThr][αMePhe(2-F)]TSD[Bip(2'-Et-4'-OMe)][hhPhe] (reading uncertain) [Seq. ID. No. 110: H-Aib-(CNB)-G-T(allo)-(α-Me-2F-Phe)-TSD-Bip(OMe)-(APPA)]
4. H[Aib]QGT[αMePhe(2-F)]TSD[Bip(2'-Et-4'-OMe)][AMCB] [Seq. ID. No. 40: H-Aib-QGT-(α-Me-2F-Phe)-TSD-Bip(OMe)-(AMCB)]
5. H[Aib][CNB]G[aThr][αMePhe(2-F)][aThr]SD[NMeBip(OMe)][NMe2F‑APPA] (reading uncertain) [Seq. ID. No. 144: H-Aib-(CNB)-G-T(allo)-(α-Me-2F-Phe)-T(allo)-SD-((NMe)Bip(OMe))-((NMe)(2F-APPA))]
6. H[Aib][CNB]G[aThr][αMePhe(2-F)][aThr]SD[Bip(2'-Et-4'-OMe)][hhPhe] (reading uncertain) [Seq. ID. No. 114: H-Aib-(CNB)-G-T(allo)-(α-Me-2F-Phe)-T(allo)-SD-Bip(OMe)-(APPA)]

86
99
77
77
89
87

Kindly give each listed record's cAMP release, % activity, 10 nM.
1. H[Ac3c]QGTFTSD[Bip(2'-Et-4'-OMe)][2CF3,4F‑APPA] [Seq. ID. No. 72: H-(ACP)-QGTFTSD-Bip(OMe)-(2CF3,4F-APPA)]
2. HSQGTFTSD[Bip(2'-Et-4'-OMe)][2F‑APPA] [Seq. ID. No. 45: HSQGTFTSD-Bip(OMe)-(2F-APPA)]

1. 84
2. 86
